- Measured On: potassium channel Kv1.5 (Homo sapiens)
- Construct: expressed in transfected cells; host or cells: Chinese hamster ovary (CHO) cells
- Sequence (P22460 whole entry): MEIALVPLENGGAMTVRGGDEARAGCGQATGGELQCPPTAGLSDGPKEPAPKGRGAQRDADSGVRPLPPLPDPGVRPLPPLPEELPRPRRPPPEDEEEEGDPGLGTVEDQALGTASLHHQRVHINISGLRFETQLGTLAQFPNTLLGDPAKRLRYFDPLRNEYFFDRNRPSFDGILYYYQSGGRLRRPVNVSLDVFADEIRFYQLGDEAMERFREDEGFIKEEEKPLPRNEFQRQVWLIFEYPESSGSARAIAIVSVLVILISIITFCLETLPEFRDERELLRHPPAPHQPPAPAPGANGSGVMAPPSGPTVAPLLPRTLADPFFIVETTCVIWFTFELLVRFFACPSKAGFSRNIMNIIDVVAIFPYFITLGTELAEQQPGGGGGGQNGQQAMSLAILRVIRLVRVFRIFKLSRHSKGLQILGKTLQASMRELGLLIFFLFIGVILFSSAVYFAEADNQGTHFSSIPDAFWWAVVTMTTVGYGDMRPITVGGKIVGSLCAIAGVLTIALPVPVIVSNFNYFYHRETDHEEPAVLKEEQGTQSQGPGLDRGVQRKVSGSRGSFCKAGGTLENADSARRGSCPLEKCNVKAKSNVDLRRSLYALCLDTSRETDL
- Method Summary: Kv1.5 ion channel inhibitory experiment (whole-cell patch clamp, CHO cells)
- Type: cell-based
- Condition Parameters: Kv1.5 expression in CHO cells; holding potential −80 mV; mean ± SEM of 3 to 5 measurements; Hill fit; read-out: IC50, inhibitory effect on Kv1.5 current
Readout Kind: pIC50
Give bare numbers, as −log10 of the molar value.

[ask] Recorded pIC50 for COc1ccc(-c2cc(=O)c3c(O)cc(O)cc3o2)cc1 with potassium channel Kv1.5 (Homo sapiens), please?
[reply] 5.22
